biological target: PAR1 (Homo sapiens (Human)); assay: Par-1 FLIPR assay (calcium, HEK 293 cells, PAR1 activating peptide); details: PAR1 selective receptor-activating peptide at 80% activation
Sequence (P25116 22-425): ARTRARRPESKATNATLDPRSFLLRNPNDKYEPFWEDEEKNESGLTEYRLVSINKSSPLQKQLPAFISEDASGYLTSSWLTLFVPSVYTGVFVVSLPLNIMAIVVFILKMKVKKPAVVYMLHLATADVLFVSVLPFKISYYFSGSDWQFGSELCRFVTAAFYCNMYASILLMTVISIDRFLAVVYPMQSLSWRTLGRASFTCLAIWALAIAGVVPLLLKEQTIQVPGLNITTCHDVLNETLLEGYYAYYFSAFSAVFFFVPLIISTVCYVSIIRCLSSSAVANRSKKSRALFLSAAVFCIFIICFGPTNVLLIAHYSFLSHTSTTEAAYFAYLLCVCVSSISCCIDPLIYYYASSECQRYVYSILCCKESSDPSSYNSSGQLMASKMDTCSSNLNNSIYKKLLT
Quick reference for IC50 among some compounds
measured-property: IC50 (nM)

CC1[C@H](/C=C/c2ccc(-c3ccccc3C#N)cn2)C2[C@@H](C)OC(=O)[C@]2(C(O)c2nccs2)CC1(F)F (stereo partly drawn) [Example 21a] ... 2.5
C[C@H]1OC(=O)C2CC(F)(F)[C@@H](C)[C@H](/C=C/c3ccc(-c4ccccc4OC(F)(F)F)cn3)C21 (stereo partly drawn) [Example 5] ... 4.7
C[C@H]1OC(=O)[C@]2(NC(=O)c3cccc(F)c3)CC(F)(F)[C@@H](C)[C@H](/C=C/c3ccc(-c4ccccc4C#N)cn3)[C@H]12 [Example 58] ... 3
Cc1nnnn1[C@@]12CC(F)(F)[C@@H](C)[C@H](/C=C/c3ccc(-c4ccccc4C#N)cn3)[C@@H]1[C@@H](C)OC2=O [Example 34] ... 6.4
C[C@H]1OC(=O)[C@]2(C(O)c3ncco3)CC(F)(F)[C@@H](C)[C@H](/C=C/c3ccc(-c4ccccc4C#N)cn3)[C@H]12 (single isomer, unassigned) [Example 23b] ... 1.2
CC1[C@H](/C=C/c2ccc(-c3ccccc3C#N)cn2)C2[C@@H](C)OC(=O)[C@]2(NCc2cccnc2)CC1(F)F (stereo partly drawn) [Example 38] ... 4.7
